molecular target: cDNA-expressed human hepatic CYP3A4 (Homo sapiens, UniProt P08684); construct: purchased BD Gentest 456202; assay: P450 CYP3A4 inhibitory activity screening (BFC substrate, fluorescence); format: biochemical; conditions: P450 CYP3A4 inhibitory activity screening, fluorescent assay; read-out: CYP3A4 inhibition, IC50 (μM) fluorescent assay
Sequence (P08684 whole entry): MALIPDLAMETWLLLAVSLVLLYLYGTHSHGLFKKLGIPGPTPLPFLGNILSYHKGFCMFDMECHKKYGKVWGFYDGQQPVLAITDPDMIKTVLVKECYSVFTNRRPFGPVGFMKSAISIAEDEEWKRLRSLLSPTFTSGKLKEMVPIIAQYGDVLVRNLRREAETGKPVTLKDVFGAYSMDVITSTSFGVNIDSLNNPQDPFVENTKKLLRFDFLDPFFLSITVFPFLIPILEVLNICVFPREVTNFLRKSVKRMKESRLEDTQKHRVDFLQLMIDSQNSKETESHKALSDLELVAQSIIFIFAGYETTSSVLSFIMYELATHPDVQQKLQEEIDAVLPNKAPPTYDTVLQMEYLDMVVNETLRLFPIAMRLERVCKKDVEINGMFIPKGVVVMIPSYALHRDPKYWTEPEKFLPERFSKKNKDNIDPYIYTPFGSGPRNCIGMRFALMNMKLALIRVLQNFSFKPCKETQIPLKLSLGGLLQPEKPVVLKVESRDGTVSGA
A collection of compounds and their measured IC50
assay readout: IC50

C=CCN1CC(=O)N2[C@@H](Cc3ccc(O)cc3)C(=O)N(Cc3cccnc3N3CCC(N4CCCC4)CC3)C[C@@H]2N1C(=O)NCc1ccccc1; 6.84 µM
CN1CC(=O)N2[C@@H](Cc3ccc(O)cc3)C(=O)N(Cc3cccc4c3ncn4C)C[C@@H]2N1C(=O)NCc1ccccc1; 39.1 µM
C=CCN1CC(=O)N2[C@@H](Cc3ccc(O)cc3)C(=O)N(Cc3cccc(C(=O)O)c3)C[C@@H]2N1C(=O)NCc1ccc(Cl)cc1Cl; > 50 µM
C=CCN1CC(=O)N2[C@@H](Cc3ccc(O)cc3)C(=O)N(Cc3ccnc(C(N)=O)c3)C[C@@H]2N1C(=O)NCc1ccccc1; 45.1 µM
C=CCN1CC(=O)N2[C@@H](Cc3ccc(O)cc3)C(=O)N(Cc3cccc4c3ncn4C)C[C@@H]2N1C(=O)NCc1ccccn1; > 50 µM
C=CCN1CC(=O)N2[C@@H](Cc3ccc(O)cc3)C(=O)N(Cc3cccc(C(=O)OCC)n3)C[C@@H]2N1C(=O)NCc1ccccc1; 18.9 µM
C=CCN1CC(=O)N2[C@@H](Cc3ccc(O)cc3)C(=O)N(Cc3cccc(C(=O)N4CCCC4)c3)C[C@@H]2N1C(=O)NCc1ccccc1; 5 µM
C=CCN1CC(=O)N2[C@@H](Cc3ccc(O)cc3)C(=O)N(Cc3cccc4c3ncn4CC#N)C[C@@H]2N1C(=O)NCc1ccccc1; 5.4 µM
C=CCN1CC(=O)N2[C@@H](Cc3ccc(O)cc3)C(=O)N(Cc3cccc(C(=O)NCC4CC4)c3)C[C@@H]2N1C(=O)NCc1ccccc1; 7.65 µM
C=CCN1CC(=O)N2[C@@H](Cc3ccc(O)cc3)C(=O)N(Cc3cccc(C(N)=O)n3)C[C@@H]2N1C(=O)NCc1ccccc1; > 50 µM
C=CCN1CC(=O)N2[C@@H](Cc3ccc(O)cc3)C(=O)N(Cc3ccccc3-n3cnnn3)C[C@@H]2N1C(=O)NCc1ccccc1; 13.5 µM
C=CCN1CC(=O)N2[C@@H](Cc3ccc(O)cc3)C(=O)N(Cc3cccc(N(C)C(=O)OC)c3)C[C@@H]2N1C(=O)NCc1ccccc1; 10.2 µM
C#CCN1C[C@H]2N(C(=O)CN(CC=C)N2C(=O)NCc2ccccc2)[C@@H](Cc2ccc(O)cc2)C1=O; 18.1 µM
